Source: patent US9216991B2

Target: IRAK4 (Homo sapiens)
Construct: His (N); TEV cleavage site (N)
Sequence (Q9NWZ3 whole entry): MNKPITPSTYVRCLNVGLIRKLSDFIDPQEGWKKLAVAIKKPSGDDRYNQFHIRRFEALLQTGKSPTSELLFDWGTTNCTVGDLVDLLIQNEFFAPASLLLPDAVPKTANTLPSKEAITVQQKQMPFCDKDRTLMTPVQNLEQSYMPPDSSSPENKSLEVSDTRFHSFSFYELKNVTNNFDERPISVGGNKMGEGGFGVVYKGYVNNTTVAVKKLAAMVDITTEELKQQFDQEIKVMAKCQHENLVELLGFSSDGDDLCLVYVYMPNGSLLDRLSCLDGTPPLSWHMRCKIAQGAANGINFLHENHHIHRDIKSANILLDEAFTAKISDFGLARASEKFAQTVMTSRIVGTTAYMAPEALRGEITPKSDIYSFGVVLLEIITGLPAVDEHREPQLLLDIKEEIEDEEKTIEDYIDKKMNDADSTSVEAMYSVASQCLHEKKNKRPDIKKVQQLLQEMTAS
Assay: IRAK4 Enzymatic Assay
Settings: His-TEV-IRAK4 20 ng/well, ATP 2 μM, STK1-biotin peptide 300 nM, 3 hours at 30° C., FlashPlate radioactivity
Quantity Measured: IC50

Some molecules with recorded IC50:
* Cn1cc(-c2cccc(-c3ncc(-c4cnn([C@H]5CC[C@]6(CO)COC[C@]6(O)C5)c4)cn3)c2)cn1 (single isomer, unassigned) | < 100 nM
* Cn1cc(-c2cccc(-c3ncc(-c4cnn(C5CCOC6(CCOCC6)C5)c4)cn3)c2)cn1 (stereo not shown) | < 100 nM
* Cn1cc(-c2cccc(-c3ncc(-c4cnn(C5CCC(=O)CC5)c4)cn3)c2)cn1 | 100 to 1000 nM

In: Requested read-out IC50, target or system IRAK4 (Homo sapiens), entry CN1CCCC1CCn1cc(-c2cnc(-c3cccc(-c4cnn(C)c4)c3)nc2)cn1 (stereo not shown)
Out: 100 to 1000 nM

In: // fetch IRAK4 (Homo sapiens) IC50 for Cc1cc(-c2cccc(-c3ncc(-c4cnn([C@H]5CC[C@H](O)CC5)c4)cn3)c2)cnn1
Out: 100 to 1000 nM

In: API: value(readout=IC50, system=IRAK4 (Homo sapiens)) for record CC(C)NC(=O)[C@H]1CC[C@H](n2cc(-c3cnc(-c4cccc(-c5cnn(C)c5)c4)nc3)cn2)CC1
Out: 100 to 1000 nM

In: Test system IRAK4 (Homo sapiens); read-out IC50; what value for Cn1cc(-c2cccc(-c3ncc(-c4cnn(C5C[C@H]6CC[C@@H](C5)N6CC(O)C(F)(F)F)c4)cn3)c2)cn1 (stereo partly shown) ?
Out: 100 to 1000 nM
